- Tested on: HCMV UL50-UL53 nuclear egress complex (human cytomegalovirus)
- Assay: inhibitors of HCMV UL50-UL53 interaction, biochemical, HTRF (AID 1918969)
- Stated conditions: normalized percent inhibition, stronger effect = higher value, concentration not given here
In all, about 190,000 compounds went through this assay and about 280 (0.15%) were called active. The entries come from a sample that favours actives as a whole.
Below: a set of entries, each annotated with reported inhibition.

| Compound | Obs value |
| --- | --- |
| CCOc1cc(C=C2C(=O)NC(=O)NC2=O)ccc1OCCOc1ccc([N+](=O)[O-])cc1 | -8.1% (inactive) |

Request: Please look up its inhibition: Cc1ccc(C(CNC(=O)Nc2ccccc2)N2CCN(C)CC2)cc1 (stereo not given)
Response: -33.4% (inactive)

Request: What value of measured inhibition is listed for COC(=O)c1ccc(C)c(NS(=O)(=O)c2ccc3c(c2)c(=O)sn3C)c1 ?
Response: -31.7% (inactive)

Request: Could you share which inhibition value was measured for O=C(c1c(F)c(F)c(F)c(F)c1F)N(CCO)Cc1ccccc1 ?
Response: -6.4% (inactive)

Request: Value lookup for inhibition; key = CCOC(=O)c1c(C)n(-c2ccc(Cl)cc2)c2ccc(Oc3nccc(Nc4ccccc4)c3C#N)cc12
Response: -12.5% (inactive)

Origin of the recorded values: PubChem BioAssay AID1918969
